Where do these numbers come from? They come from patent US20170129959A1.

# System under test: T1, Human CD127 (IL-7 receptor alpha chain) expressed on cells (human, UniProt P16871 21-459)
# T1 chain: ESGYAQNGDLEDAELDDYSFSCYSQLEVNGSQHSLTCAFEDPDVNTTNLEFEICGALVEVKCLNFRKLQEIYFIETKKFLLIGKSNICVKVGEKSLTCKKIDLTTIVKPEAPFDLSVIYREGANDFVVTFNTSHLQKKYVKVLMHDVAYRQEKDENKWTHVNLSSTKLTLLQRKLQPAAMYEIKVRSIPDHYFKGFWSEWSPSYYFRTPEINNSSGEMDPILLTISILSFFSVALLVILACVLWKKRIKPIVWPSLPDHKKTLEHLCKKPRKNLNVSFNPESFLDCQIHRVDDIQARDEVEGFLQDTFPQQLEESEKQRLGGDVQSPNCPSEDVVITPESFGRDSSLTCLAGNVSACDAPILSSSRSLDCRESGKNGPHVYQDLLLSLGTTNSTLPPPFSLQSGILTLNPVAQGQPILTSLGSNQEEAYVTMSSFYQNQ
# Assay notes: cell-based or functional assay
Measurement label: IC 50 of inhibition of IL7 induced P-STAT5 on T lymphocytes (0.1 ng/ml rhIL-7) (µg/mL)
Number only, in µg/mL; omit the unit.

Example binders with recorded IC 50 of inhibition of IL7 induced P-STAT5 on T lymphocytes (0.1 ng/ml rhIL-7):
Binder	Units of measure	Obs value
N13B2 wt (antibody, V domains shown, also called Rat N13B2 wt) VH: AVQLVESGGGLVQPGGSLKLSCAVSGFTLSDYYMAWVRQAPKKGLEWVATISASGLRTYYPDSVKGRFTISRDDAKRSLFLQMTSLKSEDTATYYCARPMSAHYGFNYFDYWGQGVMVTVSS VL: DIQMTQSPASLSASLGETVTIECRTSEDIYNGLAWYQQKPGKSPQLLVYSANSLHIGVPSRFSGSGSGTQYSLKINSLQFEDVASYFCQQYYDYPLAFGSGTKLEIKR	µg/mL	0.0502
N13B2-h3 (humanized N13B2) (antibody, IgG4, V domains shown, Variable regions only) VH: QVQLVESGGGLVKPGGSLRLSCAVSGFTLSDYYMAWIRQAPGKGLEWVSTISASGLRTYYPDSVKGRFTISRDNAKNSLYLQMNSLRAEDTAVYYCARPLSAHYGFNYFDYWGQGTLVTVSS VL: EIVMTQSPATLSVSPGERATLSCRTSEDIYQGLAWYQQKPGQAPRLLIYSANTLHIGIPARFSGSGSGTEFTLTISSLQSEDFAVYYCQQYYDYPLAFGGGTKVEIK	µg/mL	0.0212
N13B2-h1 (humanized N13B2) (antibody, V domains shown) VH: QVQLVESGGGLVKPGGSLRLSCAVSGFTLSDYYMAWVRQAPGKGLEWVATISASGLRTYYPDSVKGRFTISRDDAKNSLYLQMNSLRAEDTAVYYCARPMSAHYGFNYFDYWGQGTLVTVSS VL: EIVMTQSPATLSVSPGERATLSCRTSEDIYNGLAWYQQKPGQAPRLLVYSANSLHIGIPARFSGSGSGTEYTLTISSLQSEDFAVYFCQQYYDYPLAFGGGTKVEIK	µg/mL	0.0638

Per the record, N13B2-h2 (humanized N13B2) (antibody, V domains shown, Variable regions only) VH: QVQLVESGGGLVKPGGSLRLSCAVSGFTLSDYYMAWIRQAPGKGLEWVSTISASGLRTYYPDSVKGRFTISRDNAKNSLYLQMNSLRAEDTAVYYCARPMSAHYGFNYFDYWGQGTLVTVSS VL: EIVMTQSPATLSVSPGERATLSCRTSEDIYNGLAWYQQKPGQAPRLLIYSANSLHIGIPARFSGSGSGTEFTLTISSLQSEDFAVYYCQQYYDYPLAFGGGTKVEIK has IC 50 of inhibition of IL7 induced P-STAT5 on T lymphocytes (0.1 ng/ml rhIL-7) of 0.0187
